# test.description: MTT cell viability assay MCF-7
# Assay type: cell-based, human
# conditions: human, MCF-7 cells, 5 µM, mean ± SD
attribute.measured: viability at 48 h, 5 µM (%)
Just the number please, in %, no unit attached.

I would be grateful if you could share the reported viability at 48 h, 5 µM for COc1ccc(-c2cc(C(=O)Nc3cc(-c4c(-c5ccc(F)cc5)noc4C(C)C)ccn3)n(C)c2)c(OC)c1 [28b] .
89

Continuing:
I would be grateful if you could share the reported viability at 48 h, 5 µM for CC(C)c1onc(-c2ccc(F)cc2)c1-c1ccnc(NC(=O)c2cccn2C[C@H]2NC[C@H](O)[C@@H]2O)c1 [29c] .
90

// query: COc1ccc(-c2cc(C(=O)Nc3cc(-c4c(-c5ccc(F)cc5)noc4C(C)C)ccn3)n(C)c2)cc1 [28a]
103

====

A collection of compounds and their measured viability at 48 h, 5 µM
# test.description: MTT cell viability assay HT-29
# Format: cell-based, human
# conditions: human, HT-29 cells, 5 µM, mean ± SD

I would be grateful if you could share the reported viability at 48 h, 5 µM for COc1ccc(-c2cc(C(=O)Nc3cc(-c4c(-c5ccc(F)cc5)noc4C(C)C)ccn3)n(C)c2)cc1 [28a] .
111%

// query: COc1ccc(-c2cc(C(=O)Nc3cc(-c4c(-c5ccc(F)cc5)noc4C(C)C)ccn3)n(C)c2)c(OC)c1 [28b]
94%

Then this compound:
I would be grateful if you could share the reported viability at 48 h, 5 µM for CC(C)c1onc(-c2ccc(F)cc2)c1-c1ccnc(NC(=O)c2cccn2C[C@H]2NC[C@H](O)[C@@H]2O)c1 [29c] .
80%

====

A collection of molecules and their measured viability at 48 h, 20 µM
# test.description: MTT cell viability assay HT-29
# Format: cell-based, human
# conditions: human, HT-29 cells, 20 µM, mean ± SD
Just the number please, in %, no unit attached.

I would be grateful if you could share the reported viability at 48 h, 20 µM for COc1ccc(-c2cc(C(=O)Nc3cc(-c4c(-c5ccc(F)cc5)noc4C(C)C)ccn3)n(C)c2)cc1 [28a] .
78

Continuing:
I would be grateful if you could share the reported viability at 48 h, 20 µM for COc1ccc(-c2cc(C(=O)Nc3cc(-c4c(-c5ccc(F)cc5)noc4C(C)C)ccn3)n(C)c2)c(OC)c1 [28b] .
52

====

# system.name: human GST-CK1ε (Homo sapiens)
# Construct: purchased Invitrogen PV3500
# Sequence (P49674 whole entry): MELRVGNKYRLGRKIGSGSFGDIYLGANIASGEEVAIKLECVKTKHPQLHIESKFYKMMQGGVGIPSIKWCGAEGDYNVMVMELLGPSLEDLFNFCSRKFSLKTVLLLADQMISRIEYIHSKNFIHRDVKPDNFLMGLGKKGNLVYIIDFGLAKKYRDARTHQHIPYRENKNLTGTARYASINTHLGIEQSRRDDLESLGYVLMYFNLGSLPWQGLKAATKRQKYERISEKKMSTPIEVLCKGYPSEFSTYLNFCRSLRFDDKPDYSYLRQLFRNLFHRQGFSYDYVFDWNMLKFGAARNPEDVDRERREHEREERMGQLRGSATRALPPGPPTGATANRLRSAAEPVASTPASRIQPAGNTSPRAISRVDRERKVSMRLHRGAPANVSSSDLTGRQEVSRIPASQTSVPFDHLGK
# test.description: in-vitro kinase assay CK1ε
# Format: biochemical
# conditions: 10 µM ATP, mean ± SD, n = 3
// returns Not met unless IC50 is strictly below 0.1 µM, in which case Met

Solved entries (count: 3):
In plain terms, does COc1ccc(-c2cc(C(=O)Nc3cc(-c4c(-c5ccc(F)cc5)noc4C(C)C)ccn3)n3c2CN2C[C@H](O)[C@H](O)[C@H]2C3)cc1 [31a] come in under 0.1 µM for IC50?
Met

// query: COc1ccc(-c2cc(C(=O)Nc3cc(-c4c(-c5ccc(F)cc5)noc4C(C)C)ccn3)n(CC3NCC(O)C3O)c2)cc1 (stereo not drawn) [29e]
Met

// query: CC(C)c1onc(-c2ccc(F)cc2)c1-c1ccnc(NC(=O)c2cccn2C[C@H]2NC[C@H](O)[C@@H]2O)c1 [29c]
Not met

Continuing:
In plain terms, does COc1ccc(-c2cc(C(=O)Nc3cc(-c4c(-c5ccc(F)cc5)noc4C(C)C)ccn3)n3c2CN2C[C@@H](O)[C@@H](O)[C@@H]2C3)cc1 [31b] come in under 0.1 µM for IC50?
Not met

// query: COc1ccc(-c2cc(C(=O)Nc3cc(-c4c(-c5ccc(F)cc5)noc4C(C)C)ccn3)n(CC3NCC(O)C3O)c2)cc1 (stereo not drawn) [29d]
Met
